EXPERIMENT_NOTES: Compound chemical stability in PBS (pH 6.5)
Format: physicochemical
CONDITION_LABEL: 30 minutes
Experimental: Compounds 1-6 were assessed for their stability in various environments, including phosphate buffered saline (PBS), simulated gastric fluid (SGF) with pepsin, SGF without pepsin, and mouse plasma, using standard stability assay protocols.

# MOLECULE, % Remaining
rows = [
    ("COc1ccc(OC)c(CCN(Cc2cc(C)cc(Cl)c2)C(=O)CN)c1 [Compound 6]", "91%"),
    ("COc1ccc(OC)c(CCN(Cc2cc(C)cc(Cl)c2)C(=O)OCc2oc(=O)oc2C)c1 [Compound 3]", "97%"),
    ("CCOC(=O)N(CCc1cc(OC)ccc1OC)Cc1cc(C)cc(Cl)c1 [Compound 5]", "96%"),
    ("COc1ccc(OC)c(CCN(Cc2cc(C)cc(Cl)c2)C(=O)OC(C)OC(=O)C(C)(C)C)c1 (centres unmarked) [Compound 4]", "102%"),
    ("COc1ccc(OC)c(CCN(Cc2cc(C)cc(Cl)c2)Cc2oc(=O)oc2C)c1 [Compound 2]", "66%"),
]
